TESTED SYSTEM: Casein kinase II subunit alpha' (Homo sapiens); further: in the data inactive means no Kd found up to 30 µM
Sequence (P19784 whole entry): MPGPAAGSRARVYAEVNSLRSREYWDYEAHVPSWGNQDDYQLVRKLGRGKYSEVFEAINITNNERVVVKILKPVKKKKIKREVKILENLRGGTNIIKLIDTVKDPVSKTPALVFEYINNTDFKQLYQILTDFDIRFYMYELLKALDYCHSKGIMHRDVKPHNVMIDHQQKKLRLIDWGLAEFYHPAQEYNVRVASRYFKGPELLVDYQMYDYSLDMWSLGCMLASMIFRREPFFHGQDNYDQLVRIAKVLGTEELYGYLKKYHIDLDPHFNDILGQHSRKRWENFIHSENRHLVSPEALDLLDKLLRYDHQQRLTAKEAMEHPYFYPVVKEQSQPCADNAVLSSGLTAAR
The source made the active and inactive calls.
Return exactly one item of True = active, False = inactive

Sample answers from the record:
[[record]]
chemical_structure = "COc1cc2nccc(Oc3ccc(NC(=O)Nc4cc(C)on4)c(Cl)c3)c2cc1OC"
assigned_category = "False"

[[record]]
chemical_structure = "CC(=O)Nc1cccc(-n2c(=O)n(C3CC3)c(=O)c3c(Nc4ccc(I)cc4F)n(C)c(=O)c(C)c32)c1"
assigned_category = "False"

[[record]]
chemical_structure = "CCCS(=O)(=O)Nc1ccc(F)c(C(=O)c2c[nH]c3ncc(-c4ccc(Cl)cc4)cc23)c1F"
assigned_category = "False"

[[record]]
chemical_structure = "CC[C@H](Nc1ncnc2[nH]cnc12)c1nc2cccc(F)c2c(=O)n1-c1ccccc1"
assigned_category = "False"


[in] Please let me know the test result on file for C1=C/COCc2cc(ccc2OCCN2CCCC2)Nc2nccc(n2)-c2cccc(c2)COC/1 .
[out] True

[in] Then CCc1cnn2c(NCc3ccc[n+]([O-])c3)cc(N3CCCC[C@H]3CCO)nc12 ?
[out] False

[in] Then CN(C)C(=O)c1cc2cnc(Nc3ccc(N4CCNCC4)cn3)nc2n1C1CCCC1 ?
[out] False

Origin of measurements: ChEMBL document CHEMBL3991601
